# target system: TMPRSS2 (Homo sapiens)
# Construct: The recombinant TMPRSS2 ectodomain (residues 109–492), excluding the transmembrane domain; His tag; made in house; host or cells: ExpiSf9 insect cells (baculovirus)
# Sequence (O15393 109-492 S251D/R252D/Q253D/S254D/R255K limits assumed): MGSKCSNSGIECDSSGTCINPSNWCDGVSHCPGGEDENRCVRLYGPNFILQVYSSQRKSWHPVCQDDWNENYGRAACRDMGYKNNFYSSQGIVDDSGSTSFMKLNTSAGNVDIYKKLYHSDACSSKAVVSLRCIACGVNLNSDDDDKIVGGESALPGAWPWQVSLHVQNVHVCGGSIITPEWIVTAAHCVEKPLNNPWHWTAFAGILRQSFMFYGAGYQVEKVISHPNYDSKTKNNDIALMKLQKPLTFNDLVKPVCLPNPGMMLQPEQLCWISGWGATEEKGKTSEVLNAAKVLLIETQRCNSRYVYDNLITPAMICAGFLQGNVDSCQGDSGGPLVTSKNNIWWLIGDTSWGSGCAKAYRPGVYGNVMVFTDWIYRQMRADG
# assay method text: TMPRSS2 inhibition (Boc-Gln-Ala-Arg-AMC fluorogenic substrate)
# Type: biochemical
# condition context: 1.3 nM TMPRSS2, 10 μM substrate; triplicate
experimental readout: pIC50
When answering, recall that pIC50 equals minus log10 of the concentration in mol/L, and write that number alone.

Prompt: Returns the measured pIC50 for the input compound. Input: O=C(O[C@@H]1Cc2c(O)cc(O)cc2O[C@@H]1c1cc(O)c(O)c2c(=O)c(O)cc([C@H]3Oc4cc(O)cc(O)c4C[C@H]3O)cc12)c1cc(O)c(O)c(O)c1 [theaflavin-3′-gallate]
Completion: 5.21

Prompt: Entry to check: O=C(O[C@@H]1Cc2c(O)cc(O)cc2O[C@@H]1c1cc(O)c(=O)c2c(O)c(O)c(O)cc2c1)c1cc(O)c(O)c(O)c1 [epitheaflagallin-3-O-gallate]
Completion: 4.45

Prompt: Same question, O=C(O[C@@H]1Cc2c(O)cc(O)cc2O[C@@H]1c1cc(O)c(=O)c2c(O)c(O)cc([C@H]3Oc4cc(O)cc(O)c4C[C@H]3O)c2c1)c1cc(O)c(O)c(O)c1 [theaflavin-3-gallate] this time
Completion: 4.31

----------
# target system: cathepsin L (Homo sapiens, UniProt P07711)
# Construct: purchased Abcam
# Sequence (P07711 114-333): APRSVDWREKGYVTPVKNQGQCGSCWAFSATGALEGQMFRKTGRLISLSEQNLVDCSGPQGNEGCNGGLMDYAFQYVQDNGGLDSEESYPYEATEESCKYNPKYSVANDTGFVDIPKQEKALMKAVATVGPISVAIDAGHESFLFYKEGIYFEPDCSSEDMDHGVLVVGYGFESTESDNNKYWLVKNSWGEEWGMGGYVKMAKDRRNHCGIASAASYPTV
# assay method text: Cathepsin L inhibition (Cathepsin L Protease Assay Kit, fluorescence)
# Assay type: biochemical
# condition context: triplicate, mean ± SD
experimental readout: IC50 (µM)
Please reply with the bare figure in µM and do not write the unit itself.

Prompt: Request body: readout IC50, system cathepsin L (Homo sapiens, UniProt P07711), query O=C(O[C@@H]1Cc2c(O)cc(O)cc2O[C@@H]1c1cc(O)c(O)c2c(=O)c(O)cc([C@H]3Oc4cc(O)cc(O)c4C[C@H]3O)cc12)c1cc(O)c(O)c(O)c1 [theaflavin-3′-gallate] . Return the value.
Completion: 51.1

Prompt: Request: "O=c1c(O)cc([C@H]2Oc3cc(O)cc(O)c3C[C@H]2O)cc2c([C@H]3Oc4cc(O)cc(O)c4C[C@H]3O)cc(O)c(O)c12"
Completion: 11.1

----------
# target system: UniProt P0DTD1
# assay method text: PLpro inhibition (proteolytic, deubiquitinating, deISGylation activities)
# Assay type: biochemical
# condition context: one entry for PL^pro, the three activities not told apart; read-out: IC50 PL^pro
pIC50: −log10 of the molar value.
experimental readout: pIC50

Prompt: Quick check: pIC50 of O=C(O[C@@H]1Cc2c(O)cc(O)cc2O[C@@H]1c1cc(O)c(O)c2c(=O)c(O)cc([C@H]3Oc4cc(O)cc(O)c4C[C@H]3O)cc12)c1cc(O)c(O)c(O)c1 [theaflavin-3′-gallate] ?
Completion: < 4.00

Prompt: Next: O=C(O[C@@H]1Cc2c(O)cc(O)cc2O[C@@H]1c1cc(O)c(=O)c2c(O)c(O)cc([C@H]3Oc4cc(O)cc(O)c4C[C@H]3O)c2c1)c1cc(O)c(O)c(O)c1 [theaflavin-3-gallate]
Completion: < 4.00

Prompt: Repeat for the following molecule: O=C(O[C@@H]1Cc2c(O)cc(O)cc2O[C@@H]1c1cc(O)c(=O)c2c(O)c(O)c(O)cc2c1)c1cc(O)c(O)c(O)c1 [epitheaflagallin-3-O-gallate]
Completion: < 4.00

----------
# target system: SARS-CoV-2 3CL^pro (Severe acute respiratory syndrome coronavirus 2)
# assay method text: 3CLpro inhibition (fluorogenic peptide)
# Format: biochemical
# condition context: 35 nM 3CL^pro, 6 μM substrate; read-out: IC50 3CL^pro
experimental readout: pIC50
# pIC50 = -log10(concentration in molar units)

Prompt: Fill in the recorded pIC50 for this compound, with SARS-CoV-2 3CL^pro (Severe acute respiratory syndrome coronavirus 2) as test system: O=c1c(O)cc([C@H]2Oc3cc(O)cc(O)c3C[C@H]2O)cc2c([C@H]3Oc4cc(O)cc(O)c4C[C@H]3O)cc(O)c(O)c12 [theaflavin]
Completion: 4.79

Prompt: One more compound: O=C(O[C@@H]1Cc2c(O)cc(O)cc2O[C@@H]1c1cc(O)c(O)c2c(=O)c(O)cc([C@H]3Oc4cc(O)cc(O)c4C[C@H]3O)cc12)c1cc(O)c(O)c(O)c1 [theaflavin-3′-gallate]
Completion: 5.17

Prompt: Now consider O=C(O[C@@H]1Cc2c(O)cc(O)cc2O[C@@H]1c1cc(O)c(=O)c2c(O)c(O)c(O)cc2c1)c1cc(O)c(O)c(O)c1 [epitheaflagallin-3-O-gallate] .
Completion: 4.51

Prompt: Further, for O=C(O[C@@H]1Cc2c(O)cc(O)cc2O[C@@H]1c1cc(O)c(=O)c2c(O)c(O)cc([C@H]3Oc4cc(O)cc(O)c4C[C@H]3O)c2c1)c1cc(O)c(O)c(O)c1 [theaflavin-3-gallate] ?
Completion: 5.06

----------
# target system: furin (Homo sapiens, UniProt P09958)
# Construct: purchased BPS Bioscience 78040
# Sequence (P09958 108-794): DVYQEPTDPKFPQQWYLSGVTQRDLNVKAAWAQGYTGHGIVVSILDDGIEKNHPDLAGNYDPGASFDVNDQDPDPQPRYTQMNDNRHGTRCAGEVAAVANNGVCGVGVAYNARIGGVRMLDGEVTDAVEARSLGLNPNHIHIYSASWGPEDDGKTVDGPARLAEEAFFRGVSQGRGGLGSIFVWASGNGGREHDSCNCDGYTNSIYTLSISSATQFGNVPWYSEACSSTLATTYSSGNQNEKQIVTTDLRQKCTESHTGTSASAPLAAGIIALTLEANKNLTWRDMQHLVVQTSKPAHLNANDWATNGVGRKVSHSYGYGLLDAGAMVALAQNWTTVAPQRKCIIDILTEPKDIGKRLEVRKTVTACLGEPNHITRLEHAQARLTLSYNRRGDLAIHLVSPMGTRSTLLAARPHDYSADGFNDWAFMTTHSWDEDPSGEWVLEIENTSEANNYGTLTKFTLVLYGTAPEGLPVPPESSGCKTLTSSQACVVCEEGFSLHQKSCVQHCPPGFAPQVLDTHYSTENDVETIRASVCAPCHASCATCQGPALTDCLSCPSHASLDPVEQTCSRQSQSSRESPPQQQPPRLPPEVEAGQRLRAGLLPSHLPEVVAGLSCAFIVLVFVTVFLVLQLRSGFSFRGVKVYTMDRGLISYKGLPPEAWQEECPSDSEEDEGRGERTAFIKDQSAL
# assay method text: Furin inhibition (Furin Protease Assay Kit, fluorescence)
# Format: biochemical
# condition context: triplicate, mean ± SD
experimental readout: pIC50
Note on units: pIC50 is unitless, being -log10 of a concentration expressed in mol/L.

Prompt: I'd like to know its pIC50. The compound in question is O=C(O[C@@H]1Cc2c(O)cc(O)cc2O[C@@H]1c1cc(O)c(=O)c2c(O)c(O)cc([C@H]3Oc4cc(O)cc(O)c4C[C@H]3O)c2c1)c1cc(O)c(O)c(O)c1 [theaflavin-3-gallate]
Completion: 4.44

Prompt: Next: O=C(O[C@@H]1Cc2c(O)cc(O)cc2O[C@@H]1c1cc(O)c(O)c2c(=O)c(O)cc([C@H]3Oc4cc(O)cc(O)c4C[C@H]3O)cc12)c1cc(O)c(O)c(O)c1 [theaflavin-3′-gallate]
Completion: 4.23

Prompt: Consider next the compound O=C(O[C@@H]1Cc2c(O)cc(O)cc2O[C@@H]1c1cc(O)c(=O)c2c(O)c(O)c(O)cc2c1)c1cc(O)c(O)c(O)c1 [epitheaflagallin-3-O-gallate] in the same way.
Completion: 4.26

----------
# target system: SARS-CoV-2 3CL^pro (Severe acute respiratory syndrome coronavirus 2)
# assay method text: 3CLpro inhibition (fluorogenic peptide)
# Assay type: biochemical
pIC50: −log10 of the molar value.
experimental readout: pIC50

Prompt: Field request: pIC50 | item: Oc1cc(O)c2c(c1)OC(c1ccc(O)c(O)c1)C(O)C2 (stereo not shown) [catechin]
Completion: < 4.00

----------
# target system: SARS-CoV-2 RdRp (Severe acute respiratory syndrome coronavirus 2)
# assay method text: RdRp inhibition (nsp12/nsp7L8/nsp8 complex, ProFoldin kit)
# condition context: triplicate
experimental readout: pIC50
Note on units: pIC50 is unitless, being -log10 of a concentration expressed in mol/L.

Prompt: Value lookup for pIC50; key = O=C(O[C@@H]1Cc2c(O)cc(O)cc2O[C@@H]1c1cc(O)c(O)c2c(=O)c(O)cc([C@H]3Oc4cc(O)cc(O)c4C[C@H]3O)cc12)c1cc(O)c(O)c(O)c1 [theaflavin-3′-gallate]
Completion: 4.63

Prompt: Now try "O=c1c(O)cc([C@H]2Oc3cc(O)cc(O)c3C[C@H]2O)cc2c([C@H]3Oc4cc(O)cc(O)c4C[C@H]3O)cc(O)c(O)c12" .
Completion: 4.40

----------
# target system: SARS-CoV-2 PL^pro (Severe acute respiratory syndrome coronavirus 2)
# assay method text: PLpro inhibition (proteolytic, deubiquitinating, deISGylation activities)
# Format: biochemical
# condition context: substrate Z-Arg-Leu-Arg-Gly-Gly-AMC; first of three values; read-out: IC50 PL^pro, proteolytic activity
What pIC50 was measured for each of the following?
Value format note: pIC50 is -log10 of concentration (mol/L); just state the number.

Prompt: For the compound Oc1cc(O)c2c(c1)OC(c1ccc(O)c(O)c1)C(O)C2 (centres unmarked) [catechin] , what pIC50 is on record?
Completion: 4.73

Prompt: Then this compound: O=c1c(O)cc([C@H]2Oc3cc(O)cc(O)c3C[C@H]2O)cc2c([C@H]3Oc4cc(O)cc(O)c4C[C@H]3O)cc(O)c(O)c12 [theaflavin]
Completion: 5.00

----------
Please provide measured CC50 at 3 days for the entries that follow.
# assay method text: Cytotoxicity, acid phosphatase (ACP) assay
# Format: cell-based
# condition context: African green monkey

Prompt: Recorded CC50 at 3 days for O=c1c(O)cc([C@H]2Oc3cc(O)cc(O)c3C[C@H]2O)cc2c([C@H]3Oc4cc(O)cc(O)c4C[C@H]3O)cc(O)c(O)c12 [theaflavin] , please?
Completion: 66.4 µM

Prompt: Item: O=C(O[C@@H]1Cc2c(O)cc(O)cc2O[C@@H]1c1cc(O)c(=O)c2c(O)c(O)c(O)cc2c1)c1cc(O)c(O)c(O)c1 [epitheaflagallin-3-O-gallate]
Completion: 109 µM

Prompt: Check O=C(O[C@@H]1Cc2c(O)cc(O)cc2O[C@@H]1c1cc(O)c(=O)c2c(O)c(O)cc([C@H]3Oc4cc(O)cc(O)c4C[C@H]3O)c2c1)c1cc(O)c(O)c(O)c1 [theaflavin-3-gallate] too.
Completion: > 100 µM

Prompt: Param item: O=C(O[C@@H]1Cc2c(O)cc(O)cc2O[C@@H]1c1cc(O)c(O)c2c(=O)c(O)cc([C@H]3Oc4cc(O)cc(O)c4C[C@H]3O)cc12)c1cc(O)c(O)c(O)c1 [theaflavin-3′-gallate]
Completion: 69.9 µM

Prompt: # iterate: O=C(O[C@@H]1Cc2c(O)cc(O)cc2O[C@@H]1c1cc(O)c(=O)c2c(O)c(O)cc([C@H]3Oc4cc(O)cc(O)c4C[C@H]3OC(=O)c3cc(O)c(O)c(O)c3)c2c1)c1cc(O)c(O)c(O)c1 [TF3, theaflavin-3,3′-digallate]
Completion: > 100 µM
